Please respond with reported Activity for every item in the list.
tested on: Rattus norvegicus; test: Antiinflammatory activity in rat assessed as inhibition of carrageenan-induced paw oedema at 20 mg/kg, po after 2 hrs; type: functional; parameters: scale not given: the % may be the effect or the level left
Quick note: give the figure in %, leave out the unit.

So for "N#Cc1c(N)nc2[nH]c(=S)[nH]c(=O)c2c1-c1ccc(N2CCOCC2)cc1" , the logged Activity turned out to be 63

Reported Activity of "CN1CCN(c2ccc(-c3c(C#N)c(N)nc4[nH]c(=S)[nH]c(=O)c34)cc2)CC1" : 60

Form field Activity, entry "O=c1[nH]cnc2nc3[nH]c(=S)[nH]c(=O)c3c(-c3ccc(N4CCOCC4)cc3)c12" : 46

"N=c1sc(=S)[nH]c2nc3[nH]c(=S)[nH]c(=O)c3c(-c3ccc(N4CCOCC4)cc3)c12" yielded Activity of 42

Entry under test: "O=c1[nH]cnc2nc3[nH]c(=S)[nH]c(=O)c3c(-c3ccc(N4CCCCC4)cc3)c12" . Its Activity was 44

Provenance of the data: ChEMBL document CHEMBL1137007
